The origin of these recorded values is the M2OR odorant receptor database.

molecular target: OR5K1 (Homo sapiens) (UniProt Q8NHB7); settings: stereoisomer not certain
Sequence (Q8NHB7 whole entry): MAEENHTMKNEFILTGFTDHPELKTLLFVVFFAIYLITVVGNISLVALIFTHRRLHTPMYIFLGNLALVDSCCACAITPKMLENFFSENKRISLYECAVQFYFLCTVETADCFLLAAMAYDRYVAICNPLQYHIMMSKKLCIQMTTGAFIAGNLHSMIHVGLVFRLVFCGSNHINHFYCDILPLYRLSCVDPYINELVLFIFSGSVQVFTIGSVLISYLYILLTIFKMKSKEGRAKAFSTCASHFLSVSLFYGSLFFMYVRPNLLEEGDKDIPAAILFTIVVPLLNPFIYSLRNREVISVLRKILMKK
Parameter call: string, one of active, inactive

compound | category_label
CCCCCc1ccccn1 | inactive
CSCSC | inactive
CCCCCC(S)C(C)CO (stereo not given) | inactive
C=Cc1cnccn1 | active
CCCCCCCC1CCC(=O)O1 (stereo not given) | inactive
CSCCC=O | inactive
CCOC(=O)C1CCCCC1 | inactive
Cc1nccnc1C | active
CCC=CCCOC(C)=O | inactive

Could you now consider this next compound?
Q) What is the recorded call for this compound in the test? CC(=O)OCCC(C)C
A) inactive

----------
Test system: OR2W1
Sequence (whole entry): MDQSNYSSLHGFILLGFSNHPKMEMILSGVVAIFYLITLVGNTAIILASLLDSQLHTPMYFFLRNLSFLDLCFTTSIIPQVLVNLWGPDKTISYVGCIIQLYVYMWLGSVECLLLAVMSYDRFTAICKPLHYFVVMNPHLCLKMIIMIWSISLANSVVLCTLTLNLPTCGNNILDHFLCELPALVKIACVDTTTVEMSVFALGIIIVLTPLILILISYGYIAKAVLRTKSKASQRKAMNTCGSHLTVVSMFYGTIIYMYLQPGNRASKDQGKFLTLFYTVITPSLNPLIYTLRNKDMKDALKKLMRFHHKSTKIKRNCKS
Conditions: stereoisomer not certain
endpoint_name: odorant receptor agonist call

Record excerpt, results attached:
molecule | odorant receptor agonist call
CCC(C)CO (stereo unspecified) | active
C=CC(O)CCCCC (stereo unspecified) | active
OCCc1ccccc1 | inactive
C=CC(=C)CCC=C(C)C | active
CCCCCCCC(=O)[O-].[H+] | inactive

Would you mind giving odorant receptor agonist call for every molecule in the list below?
1. CCCCCC=CC=O
2. CC1=CCC(C(C)(C)S)CC1 (stereo unspecified)

A)
["inactive", "inactive"]

Would you mind giving odorant receptor agonist call for every molecule in the list below?
1. CC(=O)OCCc1ccccc1
2. CCCSSSC
3. CCCSSCCC
4. CCCCCC=CCCC=O

A)
1: active; 2: active; 3: inactive; 4: inactive

----------
target: UniProt Q8VF44; settings: stereoisomer not certain
Sequence (Q8VF44 as listed by the source): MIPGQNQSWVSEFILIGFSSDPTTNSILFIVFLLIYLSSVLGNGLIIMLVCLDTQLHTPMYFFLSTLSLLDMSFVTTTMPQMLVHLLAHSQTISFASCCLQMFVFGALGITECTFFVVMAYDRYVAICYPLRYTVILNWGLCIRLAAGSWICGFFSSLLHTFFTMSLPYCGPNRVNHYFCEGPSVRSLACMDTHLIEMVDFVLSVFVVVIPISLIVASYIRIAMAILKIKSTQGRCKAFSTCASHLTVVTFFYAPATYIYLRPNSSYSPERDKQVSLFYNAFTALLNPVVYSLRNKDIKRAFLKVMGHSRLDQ
Parameter call: string, one of active, inactive

Observe how each entry below is paired with its result.
compound | category_label
CCCCC(C)=O | inactive
CCCCC(=O)O | inactive
CCCCCCO | inactive

Could you now consider this next compound?
Q) What is the recorded call for this compound in the test? CCCC(=O)C(C)=O
A) inactive

----------
molecular target: OR2G2 (Homo sapiens) (UniProt Q8NGZ5); conditions: stereoisomer not certain
Sequence (Q8NGZ5 whole entry): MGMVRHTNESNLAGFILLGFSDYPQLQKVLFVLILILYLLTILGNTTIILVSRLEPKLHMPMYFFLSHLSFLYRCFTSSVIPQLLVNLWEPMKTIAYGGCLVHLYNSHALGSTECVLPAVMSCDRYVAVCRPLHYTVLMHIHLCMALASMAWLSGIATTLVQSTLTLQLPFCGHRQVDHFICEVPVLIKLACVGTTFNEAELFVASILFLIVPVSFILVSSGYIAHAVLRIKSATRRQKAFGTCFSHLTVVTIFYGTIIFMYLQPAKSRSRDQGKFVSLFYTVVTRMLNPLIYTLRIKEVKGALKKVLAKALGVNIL
Parameter call: string, one of active, inactive

Observe how each entry below is paired with its result.
compound | category_label
Cc1cnc(C)c(C)n1 | inactive
CCc1ccc(CC(C)(C)C=O)cc1 | inactive
CC1=CCC2CC1C2(C)C (configuration not stated) | inactive
CCC(S)C(C)CO (configuration not stated) | inactive
CC1CCCCCCCCCCCCC(=O)C1 (configuration not stated) | inactive

Q) What is the recorded call for this compound in the test? CC1=C(O)C(=O)OC1C (configuration not stated)
A) inactive

Q) What is the recorded call for this compound in the test? CC=CC(=O)C1C(C)=CCCC1(C)C (configuration not stated)
A) active

----------
biological target: UniProt Q8VF43; settings: stereoisomer not certain
Sequence (Q8VF43 as listed by the source): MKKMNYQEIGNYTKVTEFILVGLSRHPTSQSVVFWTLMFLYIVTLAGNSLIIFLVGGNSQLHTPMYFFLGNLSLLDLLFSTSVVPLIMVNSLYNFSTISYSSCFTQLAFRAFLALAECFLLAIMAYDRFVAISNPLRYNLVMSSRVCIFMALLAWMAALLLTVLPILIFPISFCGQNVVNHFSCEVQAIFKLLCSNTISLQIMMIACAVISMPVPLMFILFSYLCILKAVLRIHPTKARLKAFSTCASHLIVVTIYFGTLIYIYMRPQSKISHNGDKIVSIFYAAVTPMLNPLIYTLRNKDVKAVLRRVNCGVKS
Parameter call: string, one of t = active, f = inactive

Observe how each entry below is paired with its result.
compound | category_label
CCCCCCCCCC(=O)[O-].[H+] | f
CCCCCCCCCCCO | f
CCCCCC(=O)CC | f
OCCc1ccccc1 | f
CCCCCCC=CC=O | f
CCOC(=O)C(C)CC (stereo unspecified) | f
CCCCCCCCO | f
C=CC(C)=CCC=C(C)CCC=C(C)C | f
CC(=O)OCc1ccc2c(c1)OCO2 | f
CCCC(=O)C(C)=O | f

Q) What is the recorded call for this compound in the test? CCCCC(C)=O
A) f

Q) What is the recorded call for this compound in the test? CCOC(=O)C(C)C
A) f

Q) What is the recorded call for this compound in the test? CC(=O)OC1(C)CCC23CC1C(C)(C)C2CCC3C (stereo unspecified)
A) t

Q) What is the recorded call for this compound in the test? CCCCCCC(=O)OCCCC
A) f

Q) What is the recorded call for this compound in the test? CCCCCCCC(C)=O
A) f

Q) What is the recorded call for this compound in the test? Cc1c(C)c(C)c(C=O)c(C)c1C
A) f

Q) What is the recorded call for this compound in the test? O=C1Cc2ccccc2O1
A) f

Q) What is the recorded call for this compound in the test? COc1ccccc1
A) f

Q) What is the recorded call for this compound in the test? COC(OC)c1ccccc1
A) f

Q) What is the recorded call for this compound in the test? CCC(=O)C(=O)CC
A) f

Q) What is the recorded call for this compound in the test? C1CCOC1
A) f

----------
biological target: UniProt Q8VH21; conditions: stereoisomer not certain
Sequence (Q8VH21 as listed by the source): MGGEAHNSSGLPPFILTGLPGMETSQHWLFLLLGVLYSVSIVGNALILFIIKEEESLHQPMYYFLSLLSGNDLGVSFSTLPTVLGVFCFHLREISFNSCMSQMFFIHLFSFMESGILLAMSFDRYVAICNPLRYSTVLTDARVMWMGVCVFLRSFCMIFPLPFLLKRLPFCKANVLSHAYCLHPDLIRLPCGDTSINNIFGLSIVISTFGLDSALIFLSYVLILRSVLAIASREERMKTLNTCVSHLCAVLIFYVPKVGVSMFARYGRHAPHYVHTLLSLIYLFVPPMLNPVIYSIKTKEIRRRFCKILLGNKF
Parameter call: string, one of Y (active), N (inactive)

compound | category_label
CCOC(=O)C(C)CC (stereo not given) | N
CC(=O)OC1(C)CCC23CC1C(C)(C)C2CCC3C (stereo not given) | N
CCCCCC(=Cc1ccccc1)C(OC)OC | N
C=CC(=O)CCCCC | N
C=CCOC(=O)CCCCCC | N
CCCC(C)C(=O)OCC (stereo not given) | N
COc1nccnc1C | N
CCCCCC=CCCC=O | N

Q) What is the recorded call for this compound in the test? C1CCOCC1
A) N

Q) What is the recorded call for this compound in the test? CC(=O)C1(C)CC2=C(CCCC2(C)C)CC1C (stereo not given)
A) N

Q) What is the recorded call for this compound in the test? CC=Cc1ccc(OC)cc1
A) N

Q) What is the recorded call for this compound in the test? C=CC(C)=CCC=C(C)CCC=C(C)C
A) N

Q) What is the recorded call for this compound in the test? CCCCC(=O)O
A) Y

Q) What is the recorded call for this compound in the test? CCCCCCCOC(=O)C(C)C
A) N

Q) What is the recorded call for this compound in the test? CCC(=O)C(=O)CC
A) N

Q) What is the recorded call for this compound in the test? COc1cnccn1
A) N

Q) What is the recorded call for this compound in the test? CCCCCCC(C)=O
A) N

Q) What is the recorded call for this compound in the test? CCCCCCC(C=O)=Cc1ccccc1
A) N

Q) What is the recorded call for this compound in the test? CCCCC=O
A) N

Q) What is the recorded call for this compound in the test? O=C(c1ccccc1)c1ccccc1
A) N

Q) What is the recorded call for this compound in the test? CCCCCCCCCCOC(C)=O
A) N

Q) What is the recorded call for this compound in the test? COc1ccccc1
A) N

Q) What is the recorded call for this compound in the test? CC1CCC(C(C)C)C(=O)C1 (stereo not given)
A) N

Q) What is the recorded call for this compound in the test? CCCCCCCCCO
A) N

Q) What is the recorded call for this compound in the test? CCC=CCCC=CC=O
A) N

----------
target: UniProt Q7TRE4; conditions: stereoisomer not certain
Sequence (Q7TRE4 as listed by the source): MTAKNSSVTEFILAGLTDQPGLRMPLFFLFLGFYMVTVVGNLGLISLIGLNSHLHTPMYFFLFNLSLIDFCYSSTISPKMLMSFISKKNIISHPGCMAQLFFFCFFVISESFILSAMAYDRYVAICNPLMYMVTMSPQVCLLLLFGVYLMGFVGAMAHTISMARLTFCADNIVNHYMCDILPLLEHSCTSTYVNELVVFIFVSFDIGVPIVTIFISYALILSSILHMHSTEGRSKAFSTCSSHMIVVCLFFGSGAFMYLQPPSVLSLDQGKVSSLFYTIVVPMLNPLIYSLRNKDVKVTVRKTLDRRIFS
Parameter call: string, one of active, inactive

compound | category_label
O=c1ccc2ccccc2o1 | active
CCC(C(=O)O)c1ccccc1 (centres undefined) | inactive
CCCCC(C)=O | inactive
CCCCCCCO | inactive
CC(C)=CCCC(C)=CCO | inactive

Q) What is the recorded call for this compound in the test? CCCCCCC(=O)[O-].[H+]
A) inactive

Q) What is the recorded call for this compound in the test? CCCCCC=O
A) inactive

Q) What is the recorded call for this compound in the test? CCCCCCC(C)=O
A) inactive

Q) What is the recorded call for this compound in the test? CCCCCCCCCCO
A) inactive

----------
target: OR2M7 (Homo sapiens) (UniProt Q8NG81); conditions: stereoisomer not certain
Sequence (Q8NG81 whole entry): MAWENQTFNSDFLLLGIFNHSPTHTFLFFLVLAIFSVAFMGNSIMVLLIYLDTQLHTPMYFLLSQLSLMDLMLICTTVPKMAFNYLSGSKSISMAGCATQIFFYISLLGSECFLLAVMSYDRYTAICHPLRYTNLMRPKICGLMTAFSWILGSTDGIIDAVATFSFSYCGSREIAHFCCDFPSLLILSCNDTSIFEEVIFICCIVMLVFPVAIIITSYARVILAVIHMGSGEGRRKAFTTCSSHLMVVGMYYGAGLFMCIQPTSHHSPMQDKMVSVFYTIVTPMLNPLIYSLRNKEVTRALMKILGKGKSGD
Parameter call: string, one of active, inactive

smiles_repr | category_label
CCCCCCC(=O)[O-].[H+] | inactive
CC(=O)c1c(C)c([N+](=O)[O-])c(C(C)(C)C)c([N+](=O)[O-])c1C | inactive
CCC(=O)O | inactive
CCCCCCCCCC(=O)[O-].[H+] | inactive
CCCCCOC(=O)CCCCC | inactive

Q) What is the recorded call for this compound in the test? CC(C)=CCCC(C)=CCO
A) active

Q) What is the recorded call for this compound in the test? CCCCCCCCCS
A) inactive

----------
molecular target: OR5K1 (Homo sapiens); conditions: stereoisomer not certain
endpoint_name: odorant receptor agonist call

Record excerpt, results attached:
compound | odorant receptor agonist call
C=C(C)C1CC=C(C)CC1 (centres undefined) | inactive
COC1=C(C)OC(C)C1=O (centres undefined) | active
CCc1nccnc1C | active
CCCSSCCC | inactive
OCC=Cc1ccccc1 | inactive

Would you mind giving odorant receptor agonist call for every compound in the list below?
1. CC1=C(O)C(=O)C(C)O1 (centres undefined)
2. CCCCC(=O)O
3. CCC(=O)C(C)=O
4. CCc1nccnc1CC
5. COc1cnccn1

A)
["inactive", "inactive", "inactive", "active", "active"]
